Give Strain-selective antibacterial activity for every item shown.
# Test system: HL053PA1 strain (RT4) and HL043PA1 strain (RT5) versus HL110PA3 strain (RT6)
# measurement-description: Strain-selective antibacterial activity (average of MICRT6/MICRT4 and MICRT6/MICRT5)
# Assay type: cell-based, Propionibacterium acnes
# cond: pH 6.5

Below: 3 compounds and their reported Strain-selective antibacterial activity.
- compound: "CCCCCCCCCCCCCC(=O)O [Myristic acid (C14:0), Myristic acid]"
  Strain-selective antibacterial activity: ">5.0"
- compound: "CCCCCCCCCCCCCCCCC(=O)O [Heptadecanoic acid (C17:0), Heptadecanoic acid]"
  Strain-selective antibacterial activity: ">140"
- compound: "CCCCCCCCCCCCCCCC(=O)O [Palmitic acid (C16:0), Palmitic acid]"
  Strain-selective antibacterial activity: ">130"

Here is the next item to consider.
### Prompt Data request, read-out Strain-selective antibacterial activity, for CCCCCCCCCCCCCCC(=O)O [Pentadecanoic acid (C15:0), Pentadecanoic acid]
### Response >96
